test system: Human immunodeficiency virus 1; test: Antiviral activity against HIV1 3B infected in human MT2 cells assessed as inhibition of virus-induced cytopathic effect after 6 days by XTT assay; assay type: functional, organism-based; settings: Human immunodeficiency virus 1, 3B, MT2, 144 h
pEC50: −log10 of the molar value.
quantity_kind: pEC50

compound_string	observed_measurement
NC(=O)C(c1ccccc1)(c1ccccc1)[C@H]1CCCN(CCc2ccc3c(c2)CCO3)C1	4.49

====

assay: Therapeutic index, ratio of CC50 for human PM1 cells to EC50 for HIV1 NL4-3; format: cell-based; details: read-out: TI

compound_string	selectivity ratio
NC(=O)C(c1ccccc1)(c1ccccc1)[C@H]1CCCN(CCc2ccc3c(c2)CCO3)C1	17

====

tested on: Human immunodeficiency virus 1; experiment: Antiviral activity against recombinant HIV1 NL4-3 bearing envelope with S162N, N302Y, G354E, V372E, D474N substitutions infected in human MT2 cells by virus production assay; assay type: functional, organism-based
pEC50: −log10 of the molar value.

compound_string	target_or_test_system	pEC50
NC(=O)C(c1ccccc1)(c1ccccc1)[C@H]1CCCN(CCc2ccc3c(c2)CCO3)C1	Human immunodeficiency virus 1	< 4.49

====

Recorded measurements of pEC50, one per entry
system: Human immunodeficiency virus 1; test: Antiviral activity against HIV1 bearing HIV1 NL4-3 envelope infected in human HeLa CD4 cells coexpressing LTR/beta-Gal gene assessed as reduction in virus-induced beta-galactosidase reporter gene activity after 72 hrs by single-cycle infection assay; format: functional, organism-based; settings: Human immunodeficiency virus 1, HeLa
pEC50: −log10 of the molar value.

compound_string	target_or_test_system	pEC50
O=C(O)C1=CC(=C(c2ccc(O)c(C(=O)O)c2)c2ccc(O)c(C(=O)O)c2)C=CC1=O	Human immunodeficiency virus 1	7.12
NC(=O)C(c1ccccc1)(c1ccccc1)[C@H]1CCCN(CCc2ccc3c(c2)CCO3)C1	Human immunodeficiency virus 1	< 4.49
Cc1c(O)cccc1C(=O)N[C@@H](CSc1ccccc1)[C@H](O)CN1C[C@H]2CCCC[C@H]2C[C@H]1C(=O)NC(C)(C)C	Human immunodeficiency virus 1	< 6.00

====

test: Therapeutic index, ratio of CC50 for human MT2 cells to EC50 for HIV1 Ba-L; type: cell-based; conditions: read-out: TI

compound_string	selectivity ratio
NC(=O)C(c1ccccc1)(c1ccccc1)[C@H]1CCCN(CCc2ccc3c(c2)CCO3)C1	2

====

system: Human immunodeficiency virus 1; assay: Antiviral activity against recombinant HIV1 NL4-3 bearing envelope with G354E, V372E, D474N substitutions infected in human MT2 cells by virus production assay; assay type: functional, organism-based
quantity_kind: EC50

compound_string	observed_measurement
NC(=O)C(c1ccccc1)(c1ccccc1)[C@H]1CCCN(CCc2ccc3c(c2)CCO3)C1	> 32 µM

====

experiment: Cytotoxicity against human MT2 cells after 6 days by XTT assay; type: cell-based

compound_string	unit_string	CC50 at 144 h
NC(=O)C(c1ccccc1)(c1ccccc1)[C@H]1CCCN(CCc2ccc3c(c2)CCO3)C1	µM	53

====

system: Human immunodeficiency virus 1; test: Antiviral activity against HIV1 NL4-3 infected in human PM1 cells assessed as inhibition of viral p24 antigen production after 5 days; format: functional, organism-based; details: Human immunodeficiency virus 1, NL4-3, PM1, 120 h
pEC50: −log10 of the molar value.
quantity_kind: pEC50

compound_string	target_or_test_system	quantity_kind	observed_measurement
NC(=O)C(c1ccccc1)(c1ccccc1)[C@H]1CCCN(CCc2ccc3c(c2)CCO3)C1	Human immunodeficiency virus 1	pEC50	5.57

====

system: Human immunodeficiency virus 1; test: Antiviral activity against recombinant HIV1 NL4/3BCt chimeric virus infected in human MT2 cells assessed as inhibition of virus-induced CPE; format: functional, organism-based; settings: Human immunodeficiency virus 1, NL4/3BCt
quantity_kind: EC50 (µM)

compound_string	quantity_kind	observed_measurement
NC(=O)C(c1ccccc1)(c1ccccc1)[C@H]1CCCN(CCc2ccc3c(c2)CCO3)C1	EC50	5.3

====

assay: Cytotoxicity against human PM1 cells after 6 days by XTT assay; format: cell-based

compound_string	CC50 at 144 h, µM
NC(=O)C(c1ccccc1)(c1ccccc1)[C@H]1CCCN(CCc2ccc3c(c2)CCO3)C1	47
